biological target: Apoptosis regulator Bcl-2 (Homo sapiens, UniProt P10415)
Sequence (P10415 whole entry): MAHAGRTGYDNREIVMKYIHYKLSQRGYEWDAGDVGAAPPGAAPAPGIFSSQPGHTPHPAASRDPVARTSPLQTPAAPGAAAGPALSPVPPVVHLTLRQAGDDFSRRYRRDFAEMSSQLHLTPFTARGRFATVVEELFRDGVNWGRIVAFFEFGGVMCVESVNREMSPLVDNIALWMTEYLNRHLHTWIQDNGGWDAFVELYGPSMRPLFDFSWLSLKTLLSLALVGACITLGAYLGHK

{"Smiles str": "Cc1cc2c(C(C)C)c(O)c(O)cc2c(O)c1-c1c(C)cc2c(C(C)C)c(O)c(O)cc2c1O", "IC50": "4.3 µM"}
